Assay: Evaluation of dissolution stability (content change on storage in dissolved state)
Assay type: physicochemical
Conditions: 1 mg/1 ml dissolved state, 40° C. and RH 75%, initial
*1 amine or outer side, *2 acyl side, *3 side chain or, on linkers, in order; H or OH if unused. Where no end group is shown, it is not given here. [ ]: non-standard residue; d: D form. Pro(trans-4-NH2) = O=C([C@@H]1C[C@@H](N[*:3])CN1[*:1])[*:2]; Pro(4-methylene) = C=C1CN[C@H](C(=O)O)C1; Hyp = O=C(O)[C@@H]1C[C@@H](O)CN1
observable: Initial content (%)
Numbers only, in %.

Some entries whose results are on file:
Entry under test: Hyp-Gly-Gln-Glu-Gly-Leu-Ala ([Hyp]GQEGLA) [Example 69] . Its Initial content (%) was 97.12

Hyp-Gly-Gln-Asp-Gly-Pro-Lys ([Hyp]GQDGPK) [Example 28] has a reported Initial content (%) of 99.14

Data point: Hyp-Gly-Gln-Asp-Gly ([Hyp]GQDG) [Example 10] ; Initial content (%) = 98.76

The recorded Initial content (%) for entry Hyp-Ala-Gln-Asp-Gly ([Hyp]AQDG) [Example 73] equals 92.11

For each entry beneath this line, provide reported Initial content (%).
1. Hyp-Gly-Gln-Leu-Val-Leu-Ala ([Hyp]GQLVLA) [Example 97]
2. trans-4NH2-Pro-Gly-Gln-Asp-Gly ([Pro(trans-4-NH2)]GQDG) [Example 42]
3. 4-methylene-Pro-Gly-Gln-Asp-Gly-Leu ([Pro(4-methylene)]GQDGL) [Example 49]
4. Hyp-Gly-Gln-D Asp-Gly ([Hyp]GQ[dD]G) [Example 59]
5. Hyp-Gly-Gln-Asp-Ala-Leu ([Hyp]GQDAL) [Example 36]
6. PGQDGLA [Example 78]

**A:**
1. 97.08
2. 71.84
3. 94.35
4. 98.78
5. 95.40
6. 97.41

----------
Test: Evaluation of dissolution stability (content change on storage in dissolved state)
Format: physicochemical
Conditions: 1 mg/1 ml dissolved state, 40° C. and RH 75%, day 3
Where no end group is shown, it is not given here. [ ]: non-standard residue; d: D form. Hyp = O=C(O)[C@@H]1C[C@@H](O)CN1
Lab note: compare Day 3 content (%) with 80%, writing satisfied if less and not satisfied if equal or more.

**Q:** Is 80% strictly greater than the substance's reported Day 3 content (%)? substance: Hyp-Gly-Gln-Asp-Ala-Leu ([Hyp]GQDAL) [Example 36]
**A:** not satisfied

**Q:** Threshold test, Day 3 content (%) < 80%: Hyp-Gly-Gln-Asp (isopropyl ester)-Gly-Leu-Ala (isopropyl ester) [Example 114]
**A:** satisfied

----------
Test: Evaluation of dissolution stability (content change on storage in dissolved state)
Assay type: physicochemical
Details: 1 mg/1 ml dissolved state, 40° C. and RH 75%, initial
Where no end group is shown, it is not given here. [ ]: non-standard residue; d: D form. The star is where a group is joined. Pro(cis-4-F) = O=C(O)[C@@H]1C[C@H](F)CN1; Hyp = O=C(O)[C@@H]1C[C@@H](O)CN1; Aib = CC(C)(N)C(=O)O; OiPr = CC(C)O*
Give measured Initial content (%) for each item. Keep answers brief.
Answers are plain numbers, in %.

The recorded Initial content (%) for Hyp-Gly-Gln-Asp (isopropyl ester)-Gly-Leu ([Hyp]GQD(OiPr)GL) [Example 116] is 88.64

For each entry beneath this line, provide reported Initial content (%).
1. Hyp-Gly-Gln-Asp-Aib ([Hyp]GQD[Aib]) [Example 85]
2. Hyp-Gly-Gln-Ala-Gly ([Hyp]GQAG) [Example 13]
3. Hyp-Gly-Gln-Glu-Leu ([Hyp]GQEL) [Example 90]
4. [Hyp]GQDVLA [Example 37]
5. Hyp-Gly-Gln-Asp (isopropyl ester)-Gly-Leu-Ala (isopropyl ester) [Example 114]
6. Hyp-Gly-Gln-Asp-Leu-Leu ([Hyp]GQDLL) [Example 35]

**A:**
[92.62, 98.51, 98.68, 98.59, 84.91, 98.51]

# batch size: 2; output Initial content (%) per entry
1. Hyp-Gly-Gln-Asp-Gly-Val ([Hyp]GQDGV) [Example 71]
2. cis-4F Pro-Gly-Gln-Asp-Gly-Leu-Ala ([Pro(cis-4-F)]GQDGLA) [Example 51]

**A:**
1: 95.21; 2: 92.07

----------
Kindly state Day 7 content (%) for each of the entries shown.
Assay: Evaluation of dissolution stability (content change on storage in dissolved state)
Format: physicochemical
Conditions: 1 mg/1 ml dissolved state, 40° C. and RH 75%, day 7
Where no end group is shown, it is not given here. [ ]: non-standard residue; d: D form. The star is where a group is joined. Hyp = O=C(O)[C@@H]1C[C@@H](O)CN1; OiPr = CC(C)O*
Answers are plain numbers, in %.

Hey, quick one: what's Day 7 content (%) for each of these?
1. PGQDGL [Example 77]
2. Hyp-Gly-Gln-Asp-Leu-Leu ([Hyp]GQDLL) [Example 35]
3. QLGLAGPK [Example 18]
4. Hyp-Gly-Gln-Asp (isopropyl ester)-Gly-Leu-Ala ([Hyp]GQD(OiPr)GLA) [Example 117]
5. Hyp-Gly-Gln-Glu-Gly ([Hyp]GQEG) [Example 67]
6. Hyp-Gly-Gln-Asp (isopropyl ester)-Gly-Leu ([Hyp]GQD(OiPr)GL) [Example 116]
7. Hyp-Gly-Gln-D Asp-Leu ([Hyp]GQ[dD]L) [Example 125]

**A:**
[69.44, 93.68, 13.41, 76.88, 98.07, 83.50, 88.48]

----------
Assay: Evaluation of dissolution stability (content change on storage in dissolved state)
Type: physicochemical
Details: 1 mg/1 ml dissolved state, 40° C. and RH 75%, initial
Primed or numbered codes have the meaning given here. Where no end group is shown, it is not given here. [ ]: non-standard residue; d: D form. The star is where a group is joined. Pro(cis-4-F) = O=C(O)[C@@H]1C[C@H](F)CN1; Asu′ = aspartimide (aminosuccinimide); Hyp = O=C(O)[C@@H]1C[C@@H](O)CN1; Aib = CC(C)(N)C(=O)O; OiPr = CC(C)O*
observable: Initial content (%)
Answers are plain numbers, in %.

Example substances with recorded Initial content (%):
Sample Hyp-Gly-Gln-Asp-Ala-Leu-Ala ([Hyp]GQDALA) [Example 39] ; Initial content (%) observed: 93.03

In plain terms, cis-4F-Pro-Gly-Gln-Asp-Gly-Leu ([Pro(cis-4-F)]GQDGL) [Example 46] has a documented Initial content (%) of 93.29

The measured Initial content (%) associated with Gln-Asu-Gly-Leu-Ala-Gly-Pro-Lys (Q[Asu′]GLAGPK) [Example 104] reads 94.22

According to the records, this substance Hyp-Gly-Gln-Glu-Phenyl Gly-Leu-Ala [Example 94] displays Initial content (%) of 98.59

Per the record, Hyp-Gly-Gln-Asp-Gly-Leu-Ala (isopropyl ester) ([Hyp]GQDGLA-OiPr) [Example 108] has Initial content (%) of 79.49

Please state, for each entry, its recorded Initial content (%).
1. Hyp-Gly-Gln-Asp-Gly (isopropyl ester) [Example 106]
2. Hyp-Gly-Gln-Asp-Ala ([Hyp]GQDA) [Example 33]
3. Pro-Gly-Gln-Asp-Gly (PGQDG) [Example 76]

**A:**
1. 89.54
2. 99.46
3. 95.07

Give Initial content (%) for all substances that follow.
1. Hyp-Gly-Gln-Ala-Val ([Hyp]GQAV) [Example 119]
2. Leu-Ala-Gly-Pro-Lys (LAGPK) [Example 25]
3. Hyp-Gly-Gln-Asp-Aib-Leu-Ala ([Hyp]GQD[Aib]LA) [Example 83]

**A:**
1. 96.39
2. 89.14
3. 95.42

Hi there! I need Initial content (%) for each item below, if you can.
1. GQDGLA [Example 29]
2. Hyp-Gly-Gln-Asp (isopropyl ester)-Gly-Leu (isopropyl ester) [Example 112]
3. Hyp-Gly-Gln-Aib-Gly-Leu ([Hyp]GQ[Aib]GL) [Example 84]
4. LGLAGPK [Example 20]

**A:**
95.19
95.34
97.78
99.35

Kindly give each listed record's Initial content (%).
1. GLAGPK [Example 26]
2. Hyp-Gly-Gln-Asp (isopropyl ester)-Gly ([Hyp]GQD(OiPr)G) [Example 115]
3. Hyp-Gly-Gln-Glu-Val-Leu-Ala ([Hyp]GQEVLA) [Example 87]
4. DGLAGP [Example 31]

**A:**
1: 92.17; 2: 92.71; 3: 99.14; 4: 91.42

Could you tell me Initial content (%) for each of these substances? They are listed below.
1. Gln-Asu-Gly-Leu-Ala-Gly (Q[Asu′]GLAG) [Example 118]
2. Hyp-Gly-Gln-Asp-Val-Leu [Example 22] ([Hyp]GQDVL)

**A:**
1: 96.15; 2: 88.14
